// each record: one item and its pKi for NDM-1 (Klebsiella pneumoniae, UniProt C7C422)
pKi: −log10 of the molar value.

{"Molecule": "NS(=O)(=O)c1c(C2CCCC2)oc(C2CCCC2)c1C(=O)O [Compound 6]", "pKi": 6.60}
{"Molecule": "Cc1c(C(=O)O)c(S(N)(=O)=O)c(C)n1C1CC1 [Compound 9]", "pKi": 5.31}
{"Molecule": "NS(=O)(=O)c1sc(Cl)cc1C(=O)O [Compound 2]", "pKi": 4.71}
{"Molecule": "Cc1c(C(=O)O)c(S(N)(=O)=O)c(C)n1-c1ccccc1 [Compound 10]", "pKi": 4.99}
{"Molecule": "CCc1oc(CC)c(S(N)(=O)=O)c1C(=O)O [Compound 4]", "pKi": 6.04}
{"Molecule": "CCc1c(C(=O)O)c(S(N)(=O)=O)c(CC)n1C [SPC]", "pKi": 6.08}
{"Molecule": "Cc1oc(C)c(S(N)(=O)=O)c1C(=O)O [SFC]", "pKi": 5.01}
{"Molecule": "Cc1c(C(=O)O)c(S(N)(=O)=O)c(C)n1C [Compound 7]", "pKi": 5.04}
{"Molecule": "CCCc1oc(CCC)c(S(N)(=O)=O)c1C(=O)O [Compound 5]", "pKi": 6.29}
{"Molecule": "NS(=O)(=O)c1sccc1C(=O)O [Compound 1]", "pKi": 5.11}

Values compiled from paper PMC7078479.
